Reference source for all entries: patent US20220135622A1

Test system: E. coli ΔwaaD
Assay: MIC assay, E. coli ΔwaaD
Assay type: cell-based, Escherichia coli
Conditions: Table 7; + EDTA
Experimental: Bacterial growth conditions. […] Peptide sensitivity and MIC assays. […] After 4 h, an equal volume (10 μL) of BacTiter-Glo™ (Promega) was added to each well and luminescence was read after 5 min on an EnVision plate reader (PerkinElmer). […] Plates were incubated at 37° C. for 20 h before measuring OD600 with an EnVision plate reader.
MIC E. coli ΔwaaD + EDTA for assorted substances

Ac-YPMTARRFLEKHGLL-NH2 [compound 11]    400 µM
Ac-YPMTARRFLEKHGLLD-NH2 [compound 10]    >800 µM
Ac-GSSYPMTARRFLEKWGLLD-NH2 [compound 6]    >800 µM
Ac-GSSYPMTARRFLEKHGLL-NH2 [compound 7]    400 µM
Ac-GSSYPMTARRFLEKWGLLR-NH2 (N-terminus and C-terminus assumed) [compound 5]    100 µM

// moving on: another record for MIC E. coli ΔwaaD + EDTA
Lookup: MIC E. coli ΔwaaD + EDTA / E. coli ΔwaaD / Ac-SSYPMTARRFLEKHGLLD-NH2 [compound 9]
>800 µM

====

MIC E coli ΔwaaD − MCR1 for assorted compounds
Test system: E. coli ΔwaaD MCR-1
Experiment: MIC assay, E. coli ΔwaaD MCR-1
Assay type: cell-based, Escherichia coli
Settings: Table 7
Method: Bacterial growth conditions. […] Peptide sensitivity and MIC assays. […] After 4 h, an equal volume (10 μL) of BacTiter-Glo™ (Promega) was added to each well and luminescence was read after 5 min on an EnVision plate reader (PerkinElmer). […] Plates were incubated at 37° C. for 20 h before measuring OD600 with an EnVision plate reader.
Square brackets hold non-standard residues; d marks the D form. Peptide text beside a SMILES is read from it. Bip = N[C@@H](Cc1ccc(-c2ccccc2)cc1)C(=O)O; aThr = C[C@H](O)[C@H](N)C(=O)O; NMeA = CN[C@@H](C)C(=O)O; Orn = NCCC[C@H](N)C(=O)O
Form entry: value (µM) — number only.

Below, each entry is followed by its recorded MIC E coli ΔwaaD − MCR1 result.
CSCC[C@H](NC(=O)[C@@H]1CCCN1C(=O)[C@H](Cc1ccc(O)cc1)NC(C)=O)C(=O)N[C@H](C(=O)N[C@@H](C)C(=O)N[C@@H](CCCN)C(=O)N[C@@H](CCCNC(=N)N)C(=O)N[C@@H](Cc1ccccc1)C(=O)N[C@@H](CC(C)C)C(=O)N[C@@H](CCC(=O)O)C(=O)N[C@@H](CCCCN)C(=O)N[C@@H](Cc1c[nH]c2ccccc12)C(=O)NCC(=O)N[C@@H](CC(C)C)C(=O)N[C@@H](CC(C)C)C(=O)N[C@@H](CCCNC(=N)N)C(N)=O)[C@@H](C)O [compound 53] (Ac-YPMTA[Orn]RFLEKWGLLR-NH2)    400
CSCC[C@H](NC(=O)[C@@H]1CCCN1C(=O)[C@H](Cc1ccc(O)cc1)NC(C)=O)C(=O)N[C@H](C(=O)N(C)[C@@H](C)C(=O)N[C@@H](CCCNC(=N)N)C(=O)N[C@@H](CCCNC(=N)N)C(=O)N[C@@H](Cc1ccccc1)C(=O)N[C@@H](CC(C)C)C(=O)N[C@@H](CCC(=O)O)C(=O)N[C@@H](CCCCN)C(=O)N[C@@H](Cc1c[nH]c2ccccc12)C(=O)NCC(=O)N[C@@H](CC(C)C)C(=O)N[C@@H](CC(C)C)C(=O)N[C@@H](CCCNC(=N)N)C(N)=O)[C@@H](C)O [compound 64] (Ac-YPMT[NMeA]RRFLEKWGLLR-NH2)    400
CSCC[C@H](NC(=O)[C@@H]1CCCN1C(=O)[C@H](Cc1ccc(O)cc1)NC(C)=O)C(=O)N[C@H](C(=O)N[C@@H](C)C(=O)N[C@@H](CCCNC(=N)N)C(=O)N[C@@H](CCCNC(=N)N)C(=O)N[C@@H](Cc1ccccc1)C(=O)N[C@@H](CC(C)C)C(=O)N[C@@H](CCC(=O)O)C(=O)N[C@@H](CCCCN)C(=O)N[C@@H](Cc1c[nH]c2ccccc12)C(=O)NCC(=O)N[C@@H](CC(C)C)C(=O)N[C@@H](CC(C)C)C(=O)N[C@@H](CCCNC(=N)N)C(N)=O)[C@H](C)O [compound 48] (Ac-YPM[aThr]ARRFLEKWGLLR-NH2)    400

// moving on: another record for MIC E coli ΔwaaD − MCR1
Lookup: MIC E coli ΔwaaD − MCR1 / E. coli ΔwaaD MCR-1 / CSCC[C@H](NC(=O)[C@@H]1CCCN1C(=O)[C@H](Cc1ccc(O)cc1)NC(C)=O)C(=O)N[C@H](C(=O)N[C@@H](C)C(=O)N[C@@H](CCCNC(=N)N)C(=O)N[C@@H](CCCNC(=N)N)C(=O)N[C@@H](Cc1ccc(-c2ccccc2)cc1)C(=O)N[C@@H](CC(C)C)C(=O)N[C@@H](CCC(=O)O)C(=O)N[C@@H](CCCCN)C(=O)N[C@@H](Cc1c[nH]c2ccccc12)C(=O)NCC(=O)N[C@@H](CC(C)C)C(=O)N[C@@H](CC(C)C)C(=O)N[C@@H](CCCNC(=N)N)C(N)=O)[C@@H](C)O [compound 55] (Ac-YPMTARR[Bip]LEKWGLLR-NH2)
50

====

System: E. coli BW25113
Format: cell-based, Escherichia coli
Details: Table 7; + EDTA
Method: Bacterial growth conditions. […] Peptide sensitivity and MIC assays. […] After 4 h, an equal volume (10 μL) of BacTiter-Glo™ (Promega) was added to each well and luminescence was read after 5 min on an EnVision plate reader (PerkinElmer). […] Plates were incubated at 37° C. for 20 h before measuring OD600 with an EnVision plate reader.
MIC E coli BW25113 + EDTA for assorted substances
Form entry: value (µM) — number only.

Ac-GSSYPMTARRFLEKWGLLD-NH2 [compound 6]    800

Param item = Ac-GSSYPMTARRFLEKWGLLR-NH2 (N-terminus and C-terminus assumed) [compound 5] ; retrieve measured MIC E coli BW25113 + EDTA.
400

Param item = Ac-YPMTARRFLEKHGLLD-NH2 [compound 10] ; retrieve measured MIC E coli BW25113 + EDTA.
800

Param item = Ac-GSSYPMTARRFLEKHGL-NH2 [compound 8] ; retrieve measured MIC E coli BW25113 + EDTA.
800

Param item = Ac-GSSYPMTARRFLEKHGLL-NH2 [compound 7] ; retrieve measured MIC E coli BW25113 + EDTA.
400

Param item = Ac-YPMTARRFLEKHGLL-NH2 [compound 11] ; retrieve measured MIC E coli BW25113 + EDTA.
400

Param item = Ac-GSSYPMTARRFLEKHGLLR-NH2 [compound 13] ; retrieve measured MIC E coli BW25113 + EDTA.
800

Param item = Ac-YPMTARRFLEKHGL-NH2 [compound 12] ; retrieve measured MIC E coli BW25113 + EDTA.
800

====

MIC E. coli BW25113 for assorted substances
Tested on: E. coli BW25113
Assay type: cell-based, Escherichia coli
Conditions: BW25113
Form entry: value (µM) — number only.

Below, each entry is followed by its recorded MIC E. coli BW25113 result.
Ac-RPMTSRRWLAKRGL-NH2 [compound 214]    100.0
Ac-RPMTWRRFLAKYGL-NH2 [compound 200]    50.0
Ac-RPMTARRWLAKRGL-NH2 [compound 201]    25.0
Ac-RPMTWRRWLEKYGL-NH2 [compound 205]    200.0

// moving on: another record for MIC E. coli BW25113
Param item = Ac-RPMTWRRFLAKRGL-NH2 [compound 203] ; retrieve measured MIC E. coli BW25113.
200.0

====

MIC E. coli imp4213 for assorted compounds
Test system: E. coli imp4213
Assay: MIC assay, E. coli imp4213
Assay type: cell-based, Escherichia coli
Conditions: Table 7
Square brackets hold non-standard residues; d marks the D form. Peptide text beside a SMILES is read from it. Bip = N[C@@H](Cc1ccc(-c2ccccc2)cc1)C(=O)O; NMeA = CN[C@@H](C)C(=O)O; Dap = NC[C@H](N)C(=O)O

Below, each entry is followed by its recorded MIC E. coli imp4213 result.
CSCC[C@H](NC(=O)[C@@H]1CCCN1C(=O)[C@H](Cc1ccc(O)cc1)NC(C)=O)C(=O)N[C@@H](CN)C(=O)N[C@@H](C)C(=O)N[C@@H](CCCNC(=N)N)C(=O)N[C@@H](CCCNC(=N)N)C(=O)N[C@@H](Cc1ccccc1)C(=O)N[C@@H](CC(C)C)C(=O)N[C@@H](CCC(=O)O)C(=O)N[C@@H](CCCCN)C(=O)N[C@@H](Cc1c[nH]c2ccccc12)C(=O)NCC(=O)N[C@@H](CC(C)C)C(=O)N[C@@H](CC(C)C)C(=O)N[C@@H](CCCNC(=N)N)C(N)=O [compound 51] (Ac-YPM[Dap]ARRFLEKWGLLR-NH2)    12.5 µM
CSCC[C@H](NC(=O)[C@@H]1CCCN1C(=O)[C@H](Cc1ccc(O)cc1)NC(C)=O)C(=O)N[C@H](C(=O)N[C@@H](C)C(=O)N[C@@H](CCCNC(=N)N)C(=O)N[C@@H](CCCNC(=N)N)C(=O)N[C@@H](Cc1ccc(-c2ccccc2)cc1)C(=O)N[C@@H](CC(C)C)C(=O)N[C@@H](CCC(=O)O)C(=O)N[C@@H](CCCCN)C(=O)N[C@@H](Cc1c[nH]c2ccccc12)C(=O)NCC(=O)N[C@@H](CC(C)C)C(=O)N[C@@H](CC(C)C)C(=O)N[C@@H](CCCNC(=N)N)C(N)=O)[C@@H](C)O [compound 55] (Ac-YPMTARR[Bip]LEKWGLLR-NH2)    6.25 µM

Param item = CSCC[C@H](NC(=O)[C@@H]1CCCN1C(=O)[C@H](Cc1ccc(O)cc1)NC(C)=O)C(=O)N[C@H](C(=O)N(C)[C@@H](C)C(=O)N[C@@H](CCCNC(=N)N)C(=O)N[C@@H](CCCNC(=N)N)C(=O)N[C@@H](Cc1ccccc1)C(=O)N[C@@H](CC(C)C)C(=O)N[C@@H](CCC(=O)O)C(=O)N[C@@H](CCCCN)C(=O)N[C@@H](Cc1c[nH]c2ccccc12)C(=O)NCC(=O)N[C@@H](CC(C)C)C(=O)N[C@@H](CC(C)C)C(=O)N[C@@H](CCCNC(=N)N)C(N)=O)[C@@H](C)O [compound 64] (Ac-YPMT[NMeA]RRFLEKWGLLR-NH2) ; retrieve measured MIC E. coli imp4213.
12.5 µM
